Source listed as ChEMBL document CHEMBL5537196.

system: CC-LP-1; assay: Antiproliferative activity against human CC-LP-1 cells assessed as inhibition of cell growth incubated for 3 days by Cell-titer glo assay; settings: CC-LP-1, 72 h
Under this convention, satisfied denotes IC50 strictly below 2 nM and not satisfied denotes IC50 at or above 2 nM.

Worked set:
>  <molecule>
C=CC(=O)N1C[C@@H](n2nc(C#Cc3cc4ncn(C5CC5)c4cc3Cl)c(C(N)=O)c2NC)C[C@@H]1COC

>  <assigned class>
not satisfied

$$$$
>  <molecule>
CCN1CCN(c2ccc(Nc3cc(N(C)C(=O)Nc4c(Cl)c(OC)cc(OC)c4Cl)ncn3)cc2)CC1 [INFIGRATINIB]

>  <assigned class>
not satisfied

$$$$
>  <molecule>
CCN1C(=O)N(c2c(F)c(OC)cc(OC)c2F)Cc2cnc3[nH]c(CN4CCOCC4)cc3c21 [PEMIGATINIB]

>  <assigned class>
not satisfied

$$$$
>  <molecule>
COc1cc(OC)cc(N(CCNC(C)C)c2ccc3ncc(-c4cnn(C)c4)nc3c2)c1 [ERDAFITINIB]

>  <assigned class>
not satisfied

$$$$
>  <molecule>
C=CC(=O)N1CC[C@H](n2nc(C#Cc3cc(OC)cc(OC)c3)c3c(N)ncnc32)C1 [FUTIBATINIB]

>  <assigned class>
satisfied

$$$$

Now turn to the next molecule.
[Q] Lab log: compare recorded IC50 with 2 nM; is it strictly lower for C=CC(=O)N1C[C@@H](n2nc(C#Cc3cc4ncn(C5CC5)c4cc3F)c(C(N)=O)c2NC)C[C@@H]1COC ?
[A] not satisfied

====

test: Aqueous solubility of the compound at pH 7.4; format: physicochemical
readout type: solubility
Don't forget the unit after the number, please.

[Q] What does the data say about its solubility? Entry: C=CC(=O)N1C[C@@H](n2nc(C#Cc3c(F)cc4c(ncn4C4CC4)c3F)c(C(N)=O)c2NC)C[C@@H]1COC
[A] 69.7 µM

====

assay: Oral bioavailability in Sprague-Dawley rat at 15 mg/kg administrated at 0.25 to 24 hrs by LC-MS/MS analysis; format: ADME, organism-based; details: in vivo, time 0.25-24 hrs
Readings of bioavailability for the listed compounds
Don't forget the unit after the number, please.

# example entries with known answers
>  <compound>
C=CC(=O)N1C[C@@H](n2nc(C#Cc3cc4ncn(C5CC5)c4cc3F)c(C(N)=O)c2NC)C[C@@H]1COC

>  <readout type>
bioavailability

>  <result>
27%

$$$$
>  <compound>
C=CC(=O)N1C[C@@H](n2nc(C#Cc3ccc4c(c3)ncn4C3CC3)c(C(N)=O)c2NC)C[C@@H]1COC

>  <readout type>
bioavailability

>  <result>
31.4%

$$$$
>  <compound>
C=CC(=O)N1C[C@@H](n2nc(C#Cc3cc4ncn(C5CC5)c4cc3Cl)c(C(N)=O)c2NC)C[C@@H]1COC

>  <readout type>
bioavailability

>  <result>
16.4%

$$$$

Now for another entry.
[Q] What does the data say about its bioavailability? Entry: C=CC(=O)N1C[C@@H](n2nc(C#Cc3c(F)cc4c(ncn4C4CC4)c3F)c(C(N)=O)c2NC)C[C@@H]1COC [RESIGRATINIB]
[A] 24.3%

====

tested on: RT-112; test: Antiproliferative activity against human RT-112 cells expressing FGFR3 K650M mutant assessed as inhibition of cell growth incubated for 5 days by Cell-titer glo assay; conditions: RT-112, 120 h
readout type: IC50 (nM)
Give just the numeric value; nM need not be written.

# example entries with known answers
>  <chemical structure>
COc1cc(OC)cc(N(CCNC(C)C)c2ccc3ncc(-c4cnn(C)c4)nc3c2)c1

>  <readout type>
IC50

>  <recorded number>
39

$$$$
>  <chemical structure>
CCN1C(=O)N(c2c(F)c(OC)cc(OC)c2F)Cc2cnc3[nH]c(CN4CCOCC4)cc3c21

>  <readout type>
IC50

>  <recorded number>
174

$$$$
>  <chemical structure>
C=CC(=O)N1CC[C@H](n2nc(C#Cc3cc(OC)cc(OC)c3)c3c(N)ncnc32)C1

>  <readout type>
IC50

>  <recorded number>
74.3

$$$$
>  <chemical structure>
CCN1CCN(c2ccc(Nc3cc(N(C)C(=O)Nc4c(Cl)c(OC)cc(OC)c4Cl)ncn3)cc2)CC1

>  <readout type>
IC50

>  <recorded number>
218

$$$$

Now for another entry.
[Q] What does the data say about its IC50? Entry: C=CC(=O)N1C[C@@H](n2nc(C#Cc3cc4ncn(C5CC5)c4cc3Cl)c(C(N)=O)c2NC)C[C@@H]1COC
[A] 12.8
